Test: Acute toxicity test (LD50, Litchfield-Wilcoxon), mice
Settings: mouse, in vivo, ip, female, intraperitoneal
Quick list: LD50 at 72 h per entry.
Give the value in mg/kg but do not write mg/kg after it.

Worked cases, answers included:
>  <COMPOUND>
CCC1(c2ccccc2O)NC(=O)NC1=O (stereo not shown) [Compound 25, 5-Ethyl-5-(2-hydroxyphenyl)hydantoin]

>  <LD50 at 72 h / mg/kg>
1040

$$$$
>  <COMPOUND>
O=C1NC(=O)C(c2ccc(O)c(CO)c2)(c2ccc(O)c(CO)c2)N1

>  <LD50 at 72 h / mg/kg>
2980

$$$$
>  <COMPOUND>
O=C1NC(=O)C(c2ccccc2)(c2ccc(F)cc2)N1 (stereo not shown)

>  <LD50 at 72 h / mg/kg>
810

$$$$

// below: LD50 at 72 h requested for another compound
Asked: Give a short answer stating reported LD50 at 72 h for O=C1NC(=O)C(c2cc(O)c(O)c(O)c2)(c2cc(O)c(O)c(O)c2)N1 [Compound 36, 5,5-Bis(3,4,5-trihydroxyphenyl)hydantoin] .
Given back: 780
